Experiment: Pharmacokinetics in mice (plasma and brain levels, LC-MS)
Format: in vivo
Details: male, C57BL/6J, iv; mouse, I.V. 1 mg/kg, plasma
Procedure: To prepare for in vivo studies, we investigated the pharmacokinetic properties of compound 6. […] For comparison, we determined the plasma and brain loxapine levels. […] The compound levels in the plasma and brain samples were determined using liquid chromatography–tandem mass spectrometry (LC‐MS/MS) by a staff member from Bienta. […] Data below the lower limit of quantitation were presented as missing data to improve the validity of the half‐life calculations. […]
Readout Type: Cmax

I would be grateful if you could share the reported Cmax for "O=C(O)COCCN1CCN(C2=Nc3ccccc3Oc3ccc(Cl)cc32)CC1" . 562 ng/mL

----------
Experiment: Pharmacokinetics in mice (plasma and brain levels, LC-MS)
Assay type: in vivo
Conditions: male, C57BL/6J, po; mouse, P.O. 10 mg/kg, brain; read-out: t1/2
Readout Type: half-life (h)
Provide the reading as a plain figure in h.

I would be grateful if you could share the reported half-life for "O=C(O)COCCN1CCN(C2=Nc3ccccc3Oc3ccc(Cl)cc32)CC1" . 1.2

----------
Assay: Pharmacokinetics in mice (plasma and brain levels, LC-MS)
Assay type: in vivo
Conditions: male, C57BL/6J, po; mouse, P.O. 10 mg/kg, brain
Readout Type: Cmax (ng/mL)
Provide the reading as a plain figure in ng/mL.

I would be grateful if you could share the reported Cmax for "O=C(O)COCCN1CCN(C2=Nc3ccccc3Oc3ccc(Cl)cc32)CC1" . 2460

----------
Target: human Slack (Homo sapiens)
Construct: host or cells: HEK293
Experiment: FluxOR potassium ion channel assay in HEK-Slack cells
Type: cell-based
Details: HEK-Slack cells, Na+-free assay buffer; mean (95% confidence interval)
Readout Type: pEC50
Scale for pEC50: -log10 of concentration given in mol/L; no unit attached.

I would be grateful if you could share the reported pEC50 for CN1CCN(C2=Nc3cc(F)ccc3Oc3ccc(C(F)(F)F)cc32)CC1 [Compound 3] . 4.38

I would be grateful if you could share the reported pEC50 for CN1CCCN(C2=Nc3ccccc3Oc3ccc(C(F)(F)F)cc32)CC1 [Compound 2] . 5.49

I would be grateful if you could share the reported pEC50 for O=C(O)COCCN1CCCN(C2=Nc3ccccc3Oc3ccc(C(F)(F)F)cc32)CC1 [Compound 8] . 4.29

I would be grateful if you could share the reported pEC50 for OCCN1CCN(C2=Nc3ccccc3Oc3ccc(Cl)cc32)CC1 [Compound 4] . 4.59

I would be grateful if you could share the reported pEC50 for CN1CCN(C2=Nc3ccccc3Oc3ccc(Cl)cc32)CC1 [Loxapine, reference compound] . 4.68

I would be grateful if you could share the reported pEC50 for OCCOCCN1CCN(C2=Nc3ccccc3Sc3ccc(Cl)cc32)CC1 [Compound 5] . 4.52

I would be grateful if you could share the reported pEC50 for O=C(O)COCCN1CCN(C2=Nc3ccccc3Oc3ccc(C(F)(F)F)cc32)CC1 [Compound 7] . 4.20

I would be grateful if you could share the reported pEC50 for CN1CCN(C2=Nc3ccccc3Oc3ccc(C(F)(F)F)cc32)CC1 [Compound 1] . 5.20

----------
Biological target: human D2S receptor (Homo sapiens, UniProt P14416)
Sequence (P14416 1-414 isoform P14416-2): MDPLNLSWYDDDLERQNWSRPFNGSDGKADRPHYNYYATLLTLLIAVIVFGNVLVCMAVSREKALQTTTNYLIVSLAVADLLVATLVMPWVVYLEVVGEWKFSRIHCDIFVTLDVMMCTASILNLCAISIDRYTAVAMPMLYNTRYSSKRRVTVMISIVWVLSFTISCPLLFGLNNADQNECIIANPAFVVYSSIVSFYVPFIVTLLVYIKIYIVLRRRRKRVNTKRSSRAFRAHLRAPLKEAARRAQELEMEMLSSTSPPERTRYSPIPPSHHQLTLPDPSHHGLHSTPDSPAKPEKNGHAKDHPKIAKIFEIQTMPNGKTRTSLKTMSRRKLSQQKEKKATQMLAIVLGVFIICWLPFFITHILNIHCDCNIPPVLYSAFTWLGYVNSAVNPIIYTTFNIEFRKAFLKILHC
Test: [3H]-spiperone competition binding assay, D2
Conditions: mean [CI 95%]
Provide the recorded Ki for the entries that follow.
Provide the reading as a plain figure in nM.

I would be grateful if you could share the reported Ki for "O=C(O)COCCN1CCCN(C2=Nc3ccccc3Oc3ccc(C(F)(F)F)cc32)CC1" . 134

I would be grateful if you could share the reported Ki for "O=C(O)COCCN1CCN(C2=Nc3ccccc3Oc3ccc(Cl)cc32)CC1" . 1280

I would be grateful if you could share the reported Ki for "CN1CCCN(C2=Nc3ccccc3Oc3ccc(C(F)(F)F)cc32)CC1" . 82.8

I would be grateful if you could share the reported Ki for "OCCN1CCN(C2=Nc3ccccc3Oc3ccc(Cl)cc32)CC1" . 50

I would be grateful if you could share the reported Ki for "CN1CCN(C2=Nc3cc(F)ccc3Oc3ccc(C(F)(F)F)cc32)CC1" . 2.89

----------
Assay: Pharmacokinetics in mice (plasma and brain levels, LC-MS)
Format: in vivo
Conditions: male, C57BL/6J, iv; mouse, I.V. 1 mg/kg, brain
Readout Type: AUC(0-inf) (ng·h/mL)
Provide the reading as a plain figure in ng·h/mL.

I would be grateful if you could share the reported AUC(0-inf) for "O=C(O)COCCN1CCN(C2=Nc3ccccc3Oc3ccc(Cl)cc32)CC1" . 520

----------
Test: Pharmacokinetics in mice (plasma and brain levels, LC-MS)
Assay type: in vivo
Settings: male, C57BL/6J, plasma and brain, ip; mouse, 10 mg kg−1 i.p., first-order kinetics; read-out: half-life in the plasma and brain
Readout Type: half-life

I would be grateful if you could share the reported half-life for O=C(O)COCCN1CCN(C2=Nc3ccccc3Oc3ccc(Cl)cc32)CC1 [Compound 6] . ~35 min

----------
Test: Pharmacokinetics in mice (plasma and brain levels, LC-MS)
Type: in vivo
Settings: male, C57BL/6J, iv; mouse, I.V. 1 mg/kg, plasma
Readout Type: AUC(0-inf) (ng·h/mL)
Provide the reading as a plain figure in ng·h/mL.

I would be grateful if you could share the reported AUC(0-inf) for "O=C(O)COCCN1CCN(C2=Nc3ccccc3Oc3ccc(Cl)cc32)CC1" . 473

----------
Experiment: Pharmacokinetics in mice (plasma and brain levels, LC-MS)
Format: in vivo
Conditions: male, C57BL/6J, iv; mouse, I.V. 1 mg/kg, brain
Readout Type: Cmax (ng/mL)
Provide the reading as a plain figure in ng/mL.

I would be grateful if you could share the reported Cmax for O=C(O)COCCN1CCN(C2=Nc3ccccc3Oc3ccc(Cl)cc32)CC1 [Compound 6] . 493

----------
Assay: Pharmacokinetics in mice (plasma and brain levels, LC-MS)
Assay type: in vivo
Conditions: male, C57BL/6J, po; mouse, P.O. 10 mg/kg, plasma; read-out: t1/2
Readout Type: half-life

I would be grateful if you could share the reported half-life for O=C(O)COCCN1CCN(C2=Nc3ccccc3Oc3ccc(Cl)cc32)CC1 [Compound 6] . 1.12 h

----------
Test: Pharmacokinetics in mice (plasma and brain levels, LC-MS)
Format: in vivo
Conditions: male, C57BL/6J, iv; mouse, I.V. 1 mg/kg, plasma; read-out: t1/2
Readout Type: half-life (min)
Provide the reading as a plain figure in min.

I would be grateful if you could share the reported half-life for "O=C(O)COCCN1CCN(C2=Nc3ccccc3Oc3ccc(Cl)cc32)CC1" . 52.5

----------
Experiment: Pharmacokinetics in mice (plasma and brain levels, LC-MS)
Format: in vivo
Settings: male, C57BL/6J, ip; mouse, I.P. 2.5 mg/kg, plasma
Readout Type: Cmax (ng/mL)
Provide the reading as a plain figure in ng/mL.

I would be grateful if you could share the reported Cmax for CN1CCN(C2=Nc3ccccc3Oc3ccc(Cl)cc32)CC1 [Loxapine, reference compound] . 143

----------
Experiment: Pharmacokinetics in mice (plasma and brain levels, LC-MS)
Format: in vivo
Conditions: male, C57BL/6J, ip; mouse, I.P. 10 mg/kg, plasma
Readout Type: Tmax

I would be grateful if you could share the reported Tmax for "O=C(O)COCCN1CCN(C2=Nc3ccccc3Oc3ccc(Cl)cc32)CC1" . 15 min

----------
Molecular target: human D2S receptor (Homo sapiens, UniProt P14416)
Assay: [3H]-spiperone competition binding assay, D2
Conditions: mean [CI 95%]
Readout Type: pKi
Scale for pKi: -log10 of concentration given in mol/L; no unit attached.

I would be grateful if you could share the reported pKi for "OCCOCCN1CCN(C2=Nc3ccccc3Sc3ccc(Cl)cc32)CC1" . 7.35

I would be grateful if you could share the reported pKi for "CN1CCN(C2=Nc3ccccc3Oc3ccc(C(F)(F)F)cc32)CC1" . 8.44

I would be grateful if you could share the reported pKi for "O=C(O)COCCN1CCN(C2=Nc3ccccc3Oc3ccc(C(F)(F)F)cc32)CC1" . 7.56

----------
Assay: Pharmacokinetics in mice (plasma and brain levels, LC-MS)
Format: in vivo
Settings: male, C57BL/6J, ip; mouse, I.P. 2.5 mg/kg, plasma
Readout Type: Tmax (min)
Provide the reading as a plain figure in min.

I would be grateful if you could share the reported Tmax for CN1CCN(C2=Nc3ccccc3Oc3ccc(Cl)cc32)CC1 [Loxapine, reference compound] . 15

----------
Target: human Slack (Homo sapiens)
Construct: host or cells: HEK293
Sequence (Q5JUK3 1-1230): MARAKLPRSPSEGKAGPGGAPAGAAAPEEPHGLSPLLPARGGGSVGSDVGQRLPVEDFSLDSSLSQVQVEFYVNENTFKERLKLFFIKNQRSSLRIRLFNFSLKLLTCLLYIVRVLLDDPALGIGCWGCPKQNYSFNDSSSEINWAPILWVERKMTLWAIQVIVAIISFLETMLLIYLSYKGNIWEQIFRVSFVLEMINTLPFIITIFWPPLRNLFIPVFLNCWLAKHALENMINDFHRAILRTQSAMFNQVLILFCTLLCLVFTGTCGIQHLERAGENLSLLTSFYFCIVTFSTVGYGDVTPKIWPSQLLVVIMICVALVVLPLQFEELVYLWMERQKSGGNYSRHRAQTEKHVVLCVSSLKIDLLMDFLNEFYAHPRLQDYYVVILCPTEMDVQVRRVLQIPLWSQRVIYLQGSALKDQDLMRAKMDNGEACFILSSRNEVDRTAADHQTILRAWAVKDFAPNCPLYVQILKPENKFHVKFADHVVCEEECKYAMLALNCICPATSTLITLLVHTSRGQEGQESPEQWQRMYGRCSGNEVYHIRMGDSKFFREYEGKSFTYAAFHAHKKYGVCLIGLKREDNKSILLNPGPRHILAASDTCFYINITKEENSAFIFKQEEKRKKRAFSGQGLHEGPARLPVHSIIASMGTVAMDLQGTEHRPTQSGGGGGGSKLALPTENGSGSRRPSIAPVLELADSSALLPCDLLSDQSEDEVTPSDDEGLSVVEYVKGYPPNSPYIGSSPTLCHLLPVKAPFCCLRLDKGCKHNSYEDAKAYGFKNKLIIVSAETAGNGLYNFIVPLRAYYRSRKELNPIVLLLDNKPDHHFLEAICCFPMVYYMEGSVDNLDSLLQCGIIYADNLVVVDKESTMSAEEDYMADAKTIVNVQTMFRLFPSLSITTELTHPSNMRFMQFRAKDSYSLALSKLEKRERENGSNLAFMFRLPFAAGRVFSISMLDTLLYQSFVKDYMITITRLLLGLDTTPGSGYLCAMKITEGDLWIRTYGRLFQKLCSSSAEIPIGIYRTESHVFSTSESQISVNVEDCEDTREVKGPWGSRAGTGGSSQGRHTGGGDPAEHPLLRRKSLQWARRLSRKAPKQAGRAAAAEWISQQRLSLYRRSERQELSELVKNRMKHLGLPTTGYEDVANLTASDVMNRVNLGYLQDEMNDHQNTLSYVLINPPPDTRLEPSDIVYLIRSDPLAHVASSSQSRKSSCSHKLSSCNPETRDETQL
Assay: FluxOR potassium ion channel assay in HEK-Slack cells
Format: cell-based
Readout Type: Emax (%)
Provide the reading as a plain figure in %.

I would be grateful if you could share the reported Emax for "O=C(O)COCCN1CCN(C2=Nc3ccccc3Oc3ccc(Cl)cc32)CC1" . 96.2

I would be grateful if you could share the reported Emax for "OCCOCCN1CCN(C2=Nc3ccccc3Sc3ccc(Cl)cc32)CC1" . 87.4

I would be grateful if you could share the reported Emax for "CN1CCN(C2=Nc3cc(F)ccc3Oc3ccc(C(F)(F)F)cc32)CC1" . 199

I would be grateful if you could share the reported Emax for CN1CCN(C2=Nc3ccccc3Oc3ccc(Cl)cc32)CC1 [Loxapine, reference compound] . 100

I would be grateful if you could share the reported Emax for "OCCN1CCN(C2=Nc3ccccc3Oc3ccc(Cl)cc32)CC1" . 223

I would be grateful if you could share the reported Emax for "CN1CCCN(C2=Nc3ccccc3Oc3ccc(C(F)(F)F)cc32)CC1" . 63.1

I would be grateful if you could share the reported Emax for "CN1CCN(C2=Nc3ccccc3Oc3ccc(C(F)(F)F)cc32)CC1" . 114

I would be grateful if you could share the reported Emax for "O=C(O)COCCN1CCCN(C2=Nc3ccccc3Oc3ccc(C(F)(F)F)cc32)CC1" . 186

I would be grateful if you could share the reported Emax for "O=C(O)COCCN1CCN(C2=Nc3ccccc3Oc3ccc(C(F)(F)F)cc32)CC1" . 177
